Tested on: Bacillus subtilis
Test: Antibacterial activity against Bacillus subtilis ATCC 6633 assessed as inhibition of bacterial growth incubated for 16 hrs by microdilution method
Assay type: functional
Non-standard residues stand in square brackets, D forms with d. Residues, ends and D or L forms follow the SMILES beside them. Hyp = O=C(O)[C@@H]1C[C@@H](O)CN1; Phe(ol) = N[C@H](CO)Cc1ccccc1; Aib = CC(C)(N)C(=O)O
Overview of recorded MIC for various compounds
valueType: MIC (µg/mL)

[[record]]
compound = "CN[C@H](CC(C)C)C(=O)N[C@H]1C(=O)N[C@@H](CC(N)=O)C(=O)N[C@H]2C(=O)N[C@H]3C(=O)N[C@H](C(=O)N[C@H](C(=O)O)c4cc(O)cc(O)c4-c4cc3ccc4O)[C@H](O)c3ccc(c(Cl)c3)Oc3cc2cc(c3O[C@@H]2O[C@H](CO)[C@@H](O)[C@H](O)[C@H]2O[C@H]2C[C@](C)(N)[C@H](O)[C@H](C)O2)Oc2ccc(cc2Cl)[C@H]1O"
valuetype = "MIC"
measureunit = "µg/mL"
inequalitysymbol = "="
endpointvalue = 0.125

[[record]]
compound = "CC(/C=C/[C@@]1(C)[C@H](C)CCC(=O)[C@@H]1C)=C\\Cc1c(O)c(Cl)c(C)c(C=O)c1O"
valuetype = "MIC"
measureunit = "µg/mL"
inequalitysymbol = "="
endpointvalue = 2

[[record]]
compound = "CC(/C=C/[C@@]1(C)[C@H](C)CC[C@@H](O)[C@@H]1C)=C\\Cc1c(O)c(Cl)c(C)c(C=O)c1O"
valuetype = "MIC"
measureunit = "µg/mL"
inequalitysymbol = "="
endpointvalue = 32

[[record]]
compound = "CC[C@@](C)(NC(=O)CNC(=O)[C@@](C)(CC)NC(=O)[C@H](CCC(N)=O)NC(=O)C(C)(C)NC(=O)[C@H](Cc1c[nH]c2ccccc12)NC(C)=O)C(=O)N[C@@H](C)C(=O)NC(C)(C)C(=O)NC(C)(C)C(=O)NCC(=O)N[C@@H](CCC(N)=O)C(=O)NC(C)(C)C(=O)N1C[C@H](O)C[C@@H]1C(=O)NC(C)(C)C(=O)N1CCC[C@H]1C(=O)N[C@H](CO)Cc1ccccc1"
valuetype = "MIC"
measureunit = "µg/mL"
inequalitysymbol = ">"
endpointvalue = 128

[[record]]
compound = "CC[C@@](C)(NC(=O)[C@H](CCC(N)=O)NC(=O)C(C)(C)NC(=O)[C@H](Cc1c[nH]c2ccccc12)NC(C)=O)C(=O)NCC(=O)NC(C)(C)C(=O)N[C@@H](C)C(=O)NC(C)(C)C(=O)NC(C)(C)C(=O)NCC(=O)N[C@@H](CCC(N)=O)C(=O)NC(C)(C)C(=O)N1C[C@H](O)C[C@H]1C(=O)NC(C)(C)C(=O)N1CCC[C@H]1C(=O)N[C@H](CO)Cc1ccccc1"
valuetype = "MIC"
measureunit = "µg/mL"
inequalitysymbol = "="
endpointvalue = 64

[[record]]
compound = "CC(=O)N[C@@H](Cc1c[nH]c2ccccc12)C(=O)NC(C)(C)C(=O)N[C@@H](CCC(N)=O)C(=O)NC(C)(C)C(=O)NCC(=O)NC(C)(C)C(=O)N[C@@H](C)C(=O)NC(C)(C)C(=O)NC(C)(C)C(=O)NCC(=O)N[C@@H](CCC(N)=O)C(=O)NC(C)(C)C(=O)N1C[C@H](O)C[C@H]1C(=O)NC(C)(C)C(=O)N1CCC[C@H]1C(=O)N[C@H](CO)Cc1ccccc1 (Ac-W[Aib]Q[Aib]G[Aib]A[Aib][Aib]GQ[Aib][Hyp][Aib]P[Phe(ol)])"
valuetype = "MIC"
measureunit = "µg/mL"
inequalitysymbol = ">"
endpointvalue = 128

[[record]]
compound = "CC[C@@](C)(NC(=O)[C@H](CCC(N)=O)NC(=O)C(C)(C)NC(=O)[C@H](Cc1c[nH]c2ccccc12)NC(C)=O)C(=O)NCC(=O)NC(C)(C)C(=O)N[C@@H](C)C(=O)NC(C)(C)C(=O)NC(C)(C)C(=O)NCC(=O)N[C@@H](CCC(N)=O)C(=O)N[C@](C)(CC)C(=O)N1C[C@H](O)C[C@H]1C(=O)NC(C)(C)C(=O)N1CCC[C@H]1C(=O)N[C@H](CO)Cc1ccccc1"
valuetype = "MIC"
measureunit = "µg/mL"
inequalitysymbol = "="
endpointvalue = 16

